System: MOLM14 cells
Test: Proliferation assay (spheroid growth, 8 days), MOLM14;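 note: spheroid size read as confluence by live-cell imaging, compounds added at a range of concentrations with 0.3% DMSO, DMSO-treated wells = 0%, highest reference dose = low control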
Type: cell-based, human
Settings: MOLM14, 8 days; read-out: spheroid assay_OneTime MOLM14 IC50
pIC50: −log10 of the molar value.
observable: pIC50

[[record]]
molecule = "CC(C)[C@@H](CCCN(C)C)N1CC2(CCN(c3ccnnc3Oc3ccc(F)cc3C(=O)N(C(C)C)C(C)C)C2)C1 (single isomer, unassigned)"
meas_value = 7.28

[[record]]
molecule = "CNC(=O)CC[C@@H](C(C)C)N1CC2(CCN(c3ncnnc3Oc3ccc(F)cc3-c3cncnc3C3CC3)C2)C1 (single isomer, unassigned)"
meas_value = 6.66

[[record]]
molecule = "CCN(C(=O)c1cc(F)ccc1Oc1nnccc1N1CCC2(C1)CN([C@H](CCCN(C)C)C(C)C)C2)C(C)C (single isomer, unassigned)"
meas_value = 7.00

